Hey, just so you know, these numbers are from the NIST ThermoML archive (doi:10.1016/j.fluid.2008.09.004).

Listed next: entries and their corresponding mass density.
Conditions: 303.15 K; 101.33 kPa; Liquid; Vibrating tube method
Could you give me the number in kg/m3? Just the number is fine.

Below: 6 compounds and their reported mass density.
> print(dat)
                                   compound  recorded.endpoint  reading
1  CCCCn1cc[n+](C)c1.COS(=O)(=O)[O-] [1-butyl-3-methylimidazolium methyl sulfate]       mass density   1204.1
2  CCCCn1cc[n+](C)c1.O=S(=O)([O-])C(F)(F)F [1-butyl-3-methylimidazolium trifluoromethanesulfonate]       mass density   1293.7
3  CCn1cc[n+](C)c1.O=S(=O)([O-])C(F)(F)F [1-ethyl-3-methylimidazolium trifluoromethanesulfonate]       mass density   1381.1
4  CCOS(=O)(=O)[O-].CCn1cc[n+](C)c1 [1-ethyl-3-methylimidazolium ethyl sulfate]       mass density   1233.8
5  CCCCn1cc[n+](C)c1.F[B-](F)(F)F [1-butyl-3-methylimidazolium tetrafluoroborate]       mass density   1200.5
6                                       CCO       mass density      781

Please find the next compound below.
IN: Name the recorded mass density for CCCCCCn1cc[n+](C)c1.F[B-](F)(F)F [1-hexyl-3-methylimidazolium tetrafluoroborate] .
OUT: 1141.8

====

Assay: molar heat capacity at constant pressure
Conditions: 308.15 K; 101.33 kPa; Liquid; Small sample (50 mg) DSC
Rule: 1.0 for molar heat capacity at constant pressure not less than 400 J/K/mol, 0.0 for anything less.

> print(dat)
                                   molecule  classification
1  CCCCCCn1cc[n+](C)c1.F[B-](F)(F)F [1-hexyl-3-methylimidazolium tetrafluoroborate]             1.0
2  CCCCn1cc[n+](C)c1.O=S(=O)([O-])C(F)(F)F [1-butyl-3-methylimidazolium trifluoromethanesulfonate]             1.0
3                             CCO [ethanol]             0.0
4  CCCCn1cc[n+](C)c1.F[B-](F)(F)F [1-butyl-3-methylimidazolium tetrafluoroborate]             0.0
5  CCn1cc[n+](C)c1.O=S(=O)([O-])C(F)(F)F [1-ethyl-3-methylimidazolium trifluoromethanesulfonate]             0.0

Attention now turns to another entry.
IN: Hello, I need to know if CCCCn1cc[n+](C)c1.COS(=O)(=O)[O-] [1-butyl-3-methylimidazolium methyl sulfate] has measured molar heat capacity at constant pressure not below 400 J/K/mol. Thanks!
OUT: 1.0

====

Test: molar heat capacity at constant pressure
Details: 303.15 K; 101.33 kPa; Liquid; Small sample (50 mg) DSC
recorded.endpoint: molar heat capacity at constant pressure (J/K/mol)
Could you give me the number in J/K/mol? Just the number is fine.

Below: 2 compounds and their reported molar heat capacity at constant pressure.
> print(dat)
                                   compound  unit.name  reading
1                                       CCO    J/K/mol    115.3
2  CCCCCCn1cc[n+](C)c1.F[B-](F)(F)F [1-hexyl-3-methylimidazolium tetrafluoroborate]    J/K/mol    430.4

IN: Name the recorded molar heat capacity at constant pressure for CCCCn1cc[n+](C)c1.COS(=O)(=O)[O-] [1-butyl-3-methylimidazolium methyl sulfate] .
OUT: 418.5

IN: Quick one: CCCCn1cc[n+](C)c1.O=S(=O)([O-])C(F)(F)F [1-butyl-3-methylimidazolium trifluoromethanesulfonate]
OUT: 426.7

IN: Quick one: CCCCn1cc[n+](C)c1.F[B-](F)(F)F [1-butyl-3-methylimidazolium tetrafluoroborate]
OUT: 366.1

IN: Quick one: CCn1cc[n+](C)c1.O=S(=O)([O-])C(F)(F)F [1-ethyl-3-methylimidazolium trifluoromethanesulfonate]
OUT: 365.3

IN: Quick one: CCOS(=O)(=O)[O-].CCn1cc[n+](C)c1 [1-ethyl-3-methylimidazolium ethyl sulfate]
OUT: 396.8

====

Conditions: 313.15 K; 101.33 kPa; Liquid; Vibrating tube method
Listed next: entries and their corresponding mass density.
Could you give me the number in kg/m3? Just the number is fine.

> print(dat)
                                   molecule  recorded.endpoint  reading
1  CCCCn1cc[n+](C)c1.O=S(=O)([O-])C(F)(F)F [1-butyl-3-methylimidazolium trifluoromethanesulfonate]       mass density   1285.8

IN: Name the recorded mass density for CCOS(=O)(=O)[O-].CCn1cc[n+](C)c1 [1-ethyl-3-methylimidazolium ethyl sulfate] .
OUT: 1227

IN: Quick one: CCO [ethanol]
OUT: 772.3

IN: Quick one: CCn1cc[n+](C)c1.O=S(=O)([O-])C(F)(F)F [1-ethyl-3-methylimidazolium trifluoromethanesulfonate]
OUT: 1372.7

====

Listed next: entries and their corresponding mass density.
Details: 298.15 K; 101.33 kPa; Liquid; Vibrating tube method
Could you give me the number in kg/m3? Just the number is fine.

> print(dat)
                                   molecule  reading
1  CCOS(=O)(=O)[O-].CCn1cc[n+](C)c1 [1-ethyl-3-methylimidazolium ethyl sulfate]   1237.2
2                                       CCO    785.3
3  CCCCn1cc[n+](C)c1.F[B-](F)(F)F [1-butyl-3-methylimidazolium tetrafluoroborate]   1204.1
4  CCn1cc[n+](C)c1.O=S(=O)([O-])C(F)(F)F [1-ethyl-3-methylimidazolium trifluoromethanesulfonate]   1385.3
5  CCCCn1cc[n+](C)c1.COS(=O)(=O)[O-] [1-butyl-3-methylimidazolium methyl sulfate]   1207.4
6  CCCCn1cc[n+](C)c1.O=S(=O)([O-])C(F)(F)F [1-butyl-3-methylimidazolium trifluoromethanesulfonate]   1297.6

IN: Name the recorded mass density for CCCCCCn1cc[n+](C)c1.F[B-](F)(F)F [1-hexyl-3-methylimidazolium tetrafluoroborate] .
OUT: 1145.3

====

Conditions: 313.15 K; 101.33 kPa; Liquid; Vibrating tube method
recorded.endpoint: mass density (kg/m3)
Could you give me the number in kg/m3? Just the number is fine.

> print(dat)
                                   molecule  reading
1  CCCCn1cc[n+](C)c1.COS(=O)(=O)[O-] [1-butyl-3-methylimidazolium methyl sulfate]   1197.5
2  CCCCn1cc[n+](C)c1.F[B-](F)(F)F [1-butyl-3-methylimidazolium tetrafluoroborate]   1193.4

Please find the next molecule below.
IN: Name the recorded mass density for CCCCCCn1cc[n+](C)c1.F[B-](F)(F)F [1-hexyl-3-methylimidazolium tetrafluoroborate] .
OUT: 1135

====

Conditions: 313.15 K; 101.33 kPa; Liquid; Sing-around technique in a fixed-path interferometer
recorded.endpoint: speed of sound (m/s)
Could you give me the number in m/s? Just the number is fine.

Below: 3 molecules and their reported speed of sound.
> print(dat)
                                   molecule  unit.name  reading
1  CCCCCCn1cc[n+](C)c1.F[B-](F)(F)F [1-hexyl-3-methylimidazolium tetrafluoroborate]        m/s   1482.3
2  CCCC[n+]1cccc(C)c1.F[B-](F)(F)F [1-butyl-3-methylpyridinium tetrafluoroborate]        m/s   1550.7
3  CCCCn1cc[n+](C)c1.O=S(=O)([O-])C(F)(F)F [1-butyl-3-methylimidazolium trifluoromethanesulfonate]        m/s   1358.8

Please find the next molecule below.
IN: Name the recorded speed of sound for CCO .
OUT: 1091.8

====

Settings: 308.15 K; 101.33 kPa; Liquid; Vibrating tube method
Listed next: entries and their corresponding mass density.
Could you give me the number in kg/m3? Just the number is fine.

Below: 6 compounds and their reported mass density.
> print(dat)
                                   compound  recorded.endpoint  reading
1  CCCCn1cc[n+](C)c1.COS(=O)(=O)[O-] [1-butyl-3-methylimidazolium methyl sulfate]       mass density   1200.8
2  CCCCn1cc[n+](C)c1.F[B-](F)(F)F [1-butyl-3-methylimidazolium tetrafluoroborate]       mass density     1197
3  CCCCCCn1cc[n+](C)c1.F[B-](F)(F)F [1-hexyl-3-methylimidazolium tetrafluoroborate]       mass density   1138.4
4  CCOS(=O)(=O)[O-].CCn1cc[n+](C)c1 [1-ethyl-3-methylimidazolium ethyl sulfate]       mass density   1230.4
5  CCn1cc[n+](C)c1.O=S(=O)([O-])C(F)(F)F [1-ethyl-3-methylimidazolium trifluoromethanesulfonate]       mass density   1376.9
6  CCCCn1cc[n+](C)c1.O=S(=O)([O-])C(F)(F)F [1-butyl-3-methylimidazolium trifluoromethanesulfonate]       mass density   1289.7

Please find the next compound below.
IN: Name the recorded mass density for CCO .
OUT: 776.7
